Target: Full-length human PIM-1 (Homo sapiens, UniProt P11309)
Sequence (P11309 whole entry): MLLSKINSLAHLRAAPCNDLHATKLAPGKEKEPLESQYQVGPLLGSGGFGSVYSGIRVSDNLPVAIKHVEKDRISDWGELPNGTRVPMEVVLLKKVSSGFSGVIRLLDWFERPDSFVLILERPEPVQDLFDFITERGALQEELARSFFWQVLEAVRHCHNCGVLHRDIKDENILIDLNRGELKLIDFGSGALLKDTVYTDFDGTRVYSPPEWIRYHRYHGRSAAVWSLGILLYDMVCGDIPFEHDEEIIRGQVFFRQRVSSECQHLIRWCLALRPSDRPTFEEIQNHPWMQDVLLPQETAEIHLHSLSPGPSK
Documented pIC50 across a set of compounds
Please express pIC50 as -log10 of the molar concentration.

Observe how each entry below is paired with its result.
COMPOUND	ENDPOINT_VALUE
CN1CCN(C(=O)CC2CNC(=O)c3cc(-c4cccc(C(F)(F)F)c4)cn32)C(c2ccccc2)C1 (mixture of isomers) [Compound A133-M-B63]	5.60
O=C(CC1CNC(=O)c2cc(-c3cccc(OC(F)(F)F)c3)cn21)NCc1cccc(F)c1 (stereo not drawn) [Compound A134-M-B30]	6.05
O=C(CC1CNC(=O)c2cc(-c3ccc(F)cc3)cn21)NCC1CCCCC1 (stereo not drawn) [Compound A129-M-B22]	6.89
COCCCNC(=O)CC1CNC(=O)c2cc(-c3cccc(Cl)c3)cn21 (stereo not drawn) [Compound A150-M-B42]	6.23
O=C(C[C@@H]1CNC(=O)c2cc(-c3cccc(C(F)(F)F)c3)cn21)N[C@H](CO)c1ccccc1 [A133-M-B62 isomer R]	5.32
O=C(C[C@@H]1CNC(=O)c2cc(-c3cccc(C(F)(F)F)c3)cn21)N[C@H](CO)C1CCCCC1 [A133-M-B61 isomer R]	5.23
COC(=O)c1cccc(-c2cc3n(c2)C(CC(=O)NCc2cccc(F)c2)CNC3=O)c1 (stereo not drawn) [Compound A142-M-B30]	5.60
CN1CCN(C(=O)CC2CNC(=O)c3cc(-c4cccc(F)c4)cn32)C(c2ccccc2)C1 (mixture of isomers) [Compound A127-M-B63]	6.41
CCCNC(=O)CC1CNC(=O)c2cc(-c3cccc(Cl)c3)cn21 (stereo not drawn) [Compound A150-M-B25]	6.35
O=C(C[C@@H]1CNC(=O)c2cc(-c3ccnc(F)c3)cn21)N[C@H](CO)c1ccccc1 [A157-M-B62 isomer R]	5.94

**Query** # return pIC50 of O=C(CC1CNC(=O)c2cc(-c3ccc4c(c3)OCO4)cn21)NCC1CCCCC1 (stereo not drawn) [Compound A132-M-B22] (system: Full-length human PIM-1 (Homo sapiens, UniProt P11309))
**Result** 6.44

**Query** # return pIC50 of NC[C@@H](NC(=O)C[C@H]1CNC(=O)c2cc(-c3cccc(C(F)(F)F)c3)cn21)c1ccccc1 [A133-M-B65 isomer S] (system: Full-length human PIM-1 (Homo sapiens, UniProt P11309))
**Result** 7.30

**Query** # return pIC50 of O=C(CC1CNC(=O)c2cc(-c3ccccc3F)cn21)NCc1ccncc1 (stereo not drawn) [Compound A128-M-B39] (system: Full-length human PIM-1 (Homo sapiens, UniProt P11309))
**Result** 6.27

**Query** # return pIC50 of O=C(CC1CNC(=O)c2cc(-c3cccc(Cl)c3)cn21)NCc1ccncc1 (stereo not drawn) [Compound A150-M-B39] (system: Full-length human PIM-1 (Homo sapiens, UniProt P11309))
**Result** 6.66

---

Below are IC50 values recorded for Full-length human PIM-1 (Homo sapiens, UniProt P11309).
Just the number please, in nM, no unit attached.

Observe how each entry below is paired with its result.
COMPOUND	MEASUREMENT_TARGET	UNIT_ABBREVIATION	IC50
CN1CCN(C(=O)CC2CNC(=O)c3cc(-c4cc(F)ccc4F)cn32)C(c2ccccc2)C1 (mixture of isomers)	Full-length human PIM-1 (Homo sapiens, UniProt P11309)	nM	400
CC(C)CCNC(=O)CC1CNC(=O)c2cc(-c3cccc(F)c3)cn21 (centres unmarked)	Full-length human PIM-1 (Homo sapiens, UniProt P11309)	nM	610
O=C(CC1CNC(=O)c2cc(-c3ccccc3F)cn21)NCc1ccco1 (centres unmarked)	Full-length human PIM-1 (Homo sapiens, UniProt P11309)	nM	250

**Query** # return IC50 of O=C(C[C@@H]1CNC(=O)c2cc(-c3cc(F)ccc3F)cn21)N[C@H](CO)c1ccccc1 [A158-M-B62 isomer R] (system: Full-length human PIM-1 (Homo sapiens, UniProt P11309))
**Result** 550

**Query** # return IC50 of NCC(NC(=O)CC1CNC(=O)c2cc(-c3cc(F)ccc3F)cn21)c1ccccc1 (stereo not drawn) [A158-M-B65 isomer S] (system: Full-length human PIM-1 (Homo sapiens, UniProt P11309))
**Result** 30

**Query** # return IC50 of O=C1NCC(CC(=O)N2CCCCCC2)n2cc(-c3cccc(Cl)c3)cc21 (centres unmarked) (system: Full-length human PIM-1 (Homo sapiens, UniProt P11309))
**Result** 580

**Query** # return IC50 of O=C(CC1CNC(=O)c2cc(-c3cccc(Cl)c3)cn21)NCCN1CCOCC1 (centres unmarked) (system: Full-length human PIM-1 (Homo sapiens, UniProt P11309))
**Result** 1060

**Query** # return IC50 of O=C(CC1CNC(=O)c2cc(-c3cccc(C(F)(F)F)c3)cn21)NCc1ccc(F)cc1 (centres unmarked) (system: Full-length human PIM-1 (Homo sapiens, UniProt P11309))
**Result** 610
